Ref: ChEMBL document CHEMBL1151434

What MIC was measured for each of the following?
Test system: Chlamydia trachomatis
Assay: Antibacterial activity against azithromycin-tolerant 0.01 MOI Chlamydia trachomatis L2AZM#31 harboring mutation in bacterial ribosomal protein L4 infected in mouse L2 cells treated 2 hrs after infection measured on day 7 by plaque assay
Type: functional
Give the value in mg/L but do not write mg/L after it.

Give me measured MIC, please, for this compound: CCC[C@@H]1C[C@@H](C(=O)N[C@@H]([C@H]2O[C@H](SC)[C@H](O)[C@@H](O)[C@H]2O)[C@H](C)Cl)N(C)C1
0.5

Give me measured MIC, please, for this compound: CC[C@H]1OC(=O)[C@H](C)[C@@H](O[C@H]2C[C@@](C)(OC)[C@@H](O)[C@H](C)O2)[C@H](C)[C@@H](O[C@@H]2O[C@H](C)C[C@H](N(C)C)[C@H]2O)[C@](C)(O)C[C@@H](C)CN(C)[C@H](C)[C@@H](O)[C@]1(C)O
0.8

Give me measured MIC, please, for this compound: O=C(N[C@H](CO)[C@H](O)c1ccc([N+](=O)[O-])cc1)C(Cl)Cl
0.4

Give me measured MIC, please, for this compound: CO[C@@H]1[C@@H](O[C@@H]2O[C@H](C)[C@@H](O[C@H]3C[C@@](C)(O)[C@@H](OC(=O)CC(C)C)[C@H](C)O3)[C@H](N(C)C)[C@H]2O)[C@@H](CC=O)C[C@@H](C)[C@@H](O)/C=C/C=C/C[C@@H](C)OC(=O)C[C@H]1OC(C)=O
0.2

Give me measured MIC, please, for this compound: CC[C@H]1OC(=O)[C@H](C)[C@@H](O[C@H]2C[C@@](C)(OC)[C@@H](O)[C@H](C)O2)[C@H](C)[C@@H](O[C@@H]2O[C@H](C)C[C@H](N(C)C)[C@H]2O)[C@](C)(O)C[C@@H](C)C(=O)[C@H](C)[C@@H](O)[C@]1(C)O
0.8
